# system: Mitogen-activated protein kinase kinase kinase 3 (Homo sapiens) (UniProt Q99759)
# Sequence (Q99759 whole entry, looked up): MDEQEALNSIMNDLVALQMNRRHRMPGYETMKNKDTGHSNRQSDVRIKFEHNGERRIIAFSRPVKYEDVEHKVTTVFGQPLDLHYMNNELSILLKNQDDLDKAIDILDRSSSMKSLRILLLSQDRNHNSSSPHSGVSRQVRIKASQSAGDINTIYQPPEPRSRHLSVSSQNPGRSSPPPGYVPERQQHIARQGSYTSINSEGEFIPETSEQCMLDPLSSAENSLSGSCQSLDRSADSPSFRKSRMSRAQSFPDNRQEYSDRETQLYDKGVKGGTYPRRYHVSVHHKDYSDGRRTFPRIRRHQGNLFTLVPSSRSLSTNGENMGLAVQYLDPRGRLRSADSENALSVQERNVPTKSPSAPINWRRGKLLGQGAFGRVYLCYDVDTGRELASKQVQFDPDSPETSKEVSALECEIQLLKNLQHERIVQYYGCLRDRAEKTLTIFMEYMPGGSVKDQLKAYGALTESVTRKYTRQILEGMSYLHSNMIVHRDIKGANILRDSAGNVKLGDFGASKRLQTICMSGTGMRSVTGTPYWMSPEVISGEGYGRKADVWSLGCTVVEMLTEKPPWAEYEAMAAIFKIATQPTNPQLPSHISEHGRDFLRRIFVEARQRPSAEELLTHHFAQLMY
# measurement-notes: modulators of MEKK3-MEK5 PB1 binding, primary screen, biochemical, wildtype MEKK3, multiplex bead flow cytometry, Alexa488-MEK5 (AID 1529);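 also: Alexa488 bead fluorescence after subtracting the streptavidin-only scavenger bead signal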
# measurement-parameters: bead-based flow cytometry, Alexa488-MEK5 binding to MEKK3; at 10 µM; actives lie on both sides; 0 = blocked by unlabeled MEK5, 100 = vehicle
The campaign covered roughly 290,000 compounds. About 4,200 (1.4%) were called active. Only a selection was taken, and actives are over-represented in it overall.
Measured binding response (% of control) values are reported for all entries that follow.

Worked cases, answers included:
1) CCC(C)NC(=O)C1c2ccccc2Oc2ccccc21 (stereo unspecified)	71% (inactive)
2) CCC(CC)c1nnc(NC(=O)C2CCN(C(=O)c3ccco3)CC2)s1	102% (inactive)
3) Cc1ncc(CC(=O)n2cc(C(=O)c3cc(Cl)ccc3O)cn2)s1	109% (inactive)
4) CCc1nnc(NC(=O)c2sc3nc(C)cc(COC)c3c2N)s1	46% [inhibitor] (active)

-- ask Can you share its binding response (% of control)? I mean this compound: CN(CCC1CCOCC1)Cc1cn[nH]c1-c1ccc(-c2ccccc2)cc1
-- reply 109% (inactive)

Every entry's value here was drawn from PubChem BioAssay AID1529.
